Tested on: 855422-203-R-J1-PDC complex spheroid viability
experimentNotes: Anticancer human tumor 855422-203-R-J1-PDC patient-derived bladder carcinoma cell line growth inhibition
testConditions: second compound 0.1 µM; first compound 0.03 µM; hits give low values
propertyMeasured: viability, T/C (%)
Supply the numeric figure in %, leaving out any unit text.

As a guide, the following entries are already answered.
Look up and report viability, T/C, with 855422-203-R-J1-PDC complex spheroid viability as system, for CCc1c2c(nc3ccc(O)cc13)-c1cc3c(c(=O)n1C2)COC(=O)[C@]3(O)CC + NC1CC1c1ccc(-c2cccc(O)c2)cc1
6.75

Look up 855422-203-R-J1-PDC complex spheroid viability data: viability, T/C of CCN(c1cc(-c2ccc(CN3CCOCC3)cc2)cc(C(=O)NCc2c(C)cc(C)[nH]c2=O)c1C)C1CCOCC1 + NC1CC1c1ccc(-c2cccc(O)c2)cc1 , then report it.
96.8

Report value: viability, T/C, system: 855422-203-R-J1-PDC complex spheroid viability, compound: NS(=O)(=O)OCC1CC(n2ccc3c(NC4CCc5ccccc54)ncnc32)CC1O (stereo unspecified) + NC1CCC(NC2CC2c2ccccc2)CC1
102

Report viability, T/C under test system 855422-203-R-J1-PDC complex spheroid viability for CCc1c2c(nc3ccc(O)cc13)-c1cc3c(c(=O)n1C2)COC(=O)[C@]3(O)CC + NC1CCC(NC2CC2c2ccccc2)CC1 .
9.64

// fetch viability, T/C for Nc1ncn(C2CC(O)C(CO)S2)c(=O)n1 (stereo unspecified) + NC1CC1c1ccc(-c2cccc(O)c2)cc1 ; system: 855422-203-R-J1-PDC complex spheroid viability
105

Recall the reported viability, T/C of Nc1ncn(C2CC(O)C(CO)S2)c(=O)n1 (stereo unspecified) + NC1CCC(NC2CC2c2ccccc2)CC1 on 855422-203-R-J1-PDC complex spheroid viability and write it down.
90.1

Check 855422-203-R-J1-PDC complex spheroid viability data and give viability, T/C for Nc1ccn(C2OC(CO)C(O)C2(F)F)c(=O)n1 (stereo unspecified) + NC1CCC(NC2CC2c2ccccc2)CC1 .
34.7

Give viability, T/C for COc1cc(C2c3cc4c(cc3C(OC3OC5COC(C)OC5C(O)C3O)C3COC(=O)C23)OCO4)cc(OC)c1O (stereo unspecified) + NC1CC1c1ccc(-c2cccc(O)c2)cc1 tested on 855422-203-R-J1-PDC complex spheroid viability.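 Also: drug exposure lasted 7 days starting on day 3 after seeding; luminescence viability as percent of DMSO vehicle wells = 100%.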
98.3

Provide viability, T/C, recorded with 855422-203-R-J1-PDC complex spheroid viability, of O=C(C=Cc1cccc(S(=O)(=O)Nc2ccccc2)c1)NO + NC1CCC(NC2CC2c2ccccc2)CC1
88.7

Given NS(=O)(=O)OCC1CC(n2ccc3c(NC4CCc5ccccc54)ncnc32)CC1O (stereo unspecified) + NC1CC1c1ccc(-c2cccc(O)c2)cc1 , report its viability, T/C on 855422-203-R-J1-PDC complex spheroid viability.
112

Further cases:
Give the observed viability, T/C of Nc1ccccc1NC(=O)c1ccc(CNC(=O)OCc2cccnc2)cc1 + NC1CCC(NC2CC2c2ccccc2)CC1 for 855422-203-R-J1-PDC complex spheroid viability.
85

Give viability, T/C for this entry on 855422-203-R-J1-PDC complex spheroid viability: CCN(c1cc(-c2ccc(CN3CCOCC3)cc2)cc(C(=O)NCc2c(C)cc(C)[nH]c2=O)c1C)C1CCOCC1 + NC1CCC(NC2CC2c2ccccc2)CC1
103

Param request: viability, T/C | system 855422-203-R-J1-PDC complex spheroid viability | item Nc1ccn(C2OC(CO)C(O)C2(F)F)c(=O)n1 (stereo unspecified) + NC1CC1c1ccc(-c2cccc(O)c2)cc1;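 also: drug exposure lasted 7 days starting on day 3 after seeding; luminescence viability as percent of DMSO vehicle wells = 100%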
25.2

Name the recorded viability, T/C of O=C(C=Cc1cccc(S(=O)(=O)Nc2ccccc2)c1)NO + NC1CC1c1ccc(-c2cccc(O)c2)cc1 , assay system 855422-203-R-J1-PDC complex spheroid viability.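 Also: drug exposure lasted 7 days starting on day 3 after seeding; luminescence viability as percent of DMSO vehicle wells = 100%.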
109

Give viability, T/C for this entry on 855422-203-R-J1-PDC complex spheroid viability: Nc1ccccc1NC(=O)c1ccc(CNC(=O)OCc2cccnc2)cc1 + NC1CC1c1ccc(-c2cccc(O)c2)cc1
91.2

Param request: viability, T/C | system 855422-203-R-J1-PDC complex spheroid viability | item COc1cc(C2c3cc4c(cc3C(OC3OC5COC(C)OC5C(O)C3O)C3COC(=O)C23)OCO4)cc(OC)c1O (stereo unspecified) + NC1CCC(NC2CC2c2ccccc2)CC1;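 also: drug exposure lasted 7 days starting on day 3 after seeding; luminescence viability as percent of DMSO vehicle wells = 100%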
87.1
